Ref: PubChem BioAssay (NCI)

System: DU-145 prostate
assay.details: NCI tumour cell line growth inhibition, 48 h

- molecule: "CN1CCN(c2ccc(-c3cnc4c(-c5csc6ccccc56)cnn4c3)cc2)CC1"
  experimental.target: "DU-145 prostate"
  TGI: "> 15 µM"
- molecule: "CC(C)(C)NC(NC(C)(C)C)=C(C(Cl)=C(Cl)Cl)[N+](=O)[O-]"
  experimental.target: "DU-145 prostate"
  TGI: "> 100 µM"
- molecule: "O=S(=O)(NC(=S)Nc1ccccc1)c1ccc(N2N=C3c4ccccc4CC3C2c2cccs2)cc1 (stereo not given)"
  experimental.target: "DU-145 prostate"
  TGI: "41.5 µM"
- molecule: "COC(=O)NCCc1[nH]nc2c1C(=O)C=C(OC)C2=O"
  experimental.target: "DU-145 prostate"
  TGI: "> 100 µM"
- molecule: "Oc1[nH]c2ccccc2c1N=NC1=NCCCCN1"
  experimental.target: "DU-145 prostate"
  TGI: "> 100 µM"
